# Tested on: MS2 coat protein
# ASSAY OVERVIEW: apparent KD of MS2 coat protein; higher = weaker reporter binding
# CONDITION DETAILS: Eterna round: R107; input ligand: arginine 13.2 mM
The following sequences are listed with their measured apparent KD of MS2 coat protein values.
Kindly answer with a numeric value in nM, unit omitted.

Worked set:
SEQUENCE TEXT: GAUAUAACAAAAGUUGUAUCAGUGGGUGAACGAGGACCGGUACGGCCGCCACUCGGACAUGAGGAUCACCCAUGUCCAUGUGAAA [AstrosExyTryA#18]
UNIT TEXT: nM
RECORDED MEASUREMENT: 11.6

SEQUENCE TEXT: ACAUGAGGAUCACCCAUGUAUGAUGUUCCUCGAGGACCGGUACGGCCGCCACUCGAACGAGUGGCGCGCGCGCGCGCGCGCGCGC [aUa]
UNIT TEXT: nM
RECORDED MEASUREMENT: 54.8

SEQUENCE TEXT: GCAUCCUAGUCGGCCGCCACUGCAUGUUGGCAGUGCUGCAACAUACAUGAGGAUCACCCAUGUUGCAGGACCGGGACUAGGAUGC [(Trp1)-(MT2)''-(T1)'-(MT2)'-(Ms2)-(Trp2)_Design1]
UNIT TEXT: nM
RECORDED MEASUREMENT: 23.8

SEQUENCE TEXT: ACAUGAGGAUCACCCAUGUGAAGGCACGAUACCAGCUGAUCCCGUGGCCCUUGGCAGCGUCCGGUGUGGUCCGGCGGGUGGGACG [bbvmullin]
UNIT TEXT: nM
RECORDED MEASUREMENT: 25.8

SEQUENCE TEXT: UCGGGCAGAGCGGCCGCCACUGUAUGGCGUGCGGAUGACGGAACAUGAGGAUCACCCAUGUUGUUUAGGACCGGGCUUGCCGCGA [cocmullin]
UNIT TEXT: nM
RECORDED MEASUREMENT: 14

Give the measured apparent KD of MS2 coat protein of UGUAUGUGAUUUGAUACCAGACCAGCUGGUGUUAUAUGAGGAUCACCCAUAUAGGUUUGGGUCCCUUGGCAGCAAAUCGCAUACU [SS Theo B #24 Ms14] .
40.7

Give the measured apparent KD of MS2 coat protein of AAAAGAGGUGGAAGGAGCGGGAGACAUGAGGAUCACCCAUGUGAAGUAACGAAAGGUACAGCCCAGGUAGGUCGCCAUGUCGAAA [qxqamullin] .
20.6

Give the measured apparent KD of MS2 coat protein of UCGUAUGCGGCGGCCGCCACUCGCGGAUAACGAGAGCUUAACAUGAGGAUCACCCAUGUGUCAUGGAGGACCGGGCCCAUUCACA [popmullin] .
30.4

Give the measured apparent KD of MS2 coat protein of GGUUGGUGUGGAGACAUAUUGAUUACUGAAGGAGCGGGAAUAAACCCAGGUAGGUCGCAGAGAUCCACAUGAGGAUCACCCAUGU [!0.P] .
121

Give the measured apparent KD of MS2 coat protein of AAAAGACAUGAGGAUCACCCAUGUAGAGAUACCAGAUGCAUGGACAUCCCUUGGCAGCUCGUCACUUUCUAUAUUUUCCAGACGC [theeternabot_sameState_MS2_Theo_A_37] .
31

Give the measured apparent KD of MS2 coat protein of UCGCUCGCCGCAAGGCGAGCGAGUUGCGAUACCAGCCCGGAAACGGGCCCUUGGCAGCGCACAUGAGGAUCACCCAUGUCAUGUU [#1 Exclusion - Theophylline A Attempt #4 (HarryS)] .
24.7

Give the measured apparent KD of MS2 coat protein of GAUUACAUGAGGAUCACCCAUGUAACUGAAGGAGCGGUAAUAAAGCCAGGUAGGUCGCAGAACAACAUGUGGUUCAUCCAUGUAA [#14 Exclusion - Arginine A] .
23.2

Data origin: the supplement of paper PMC9170038
